Assayed System: Toll-like receptor 1/2 (Homo sapiens, UniProt O60603+Q15399)
Measurement Notes: Agonist activity at TLR1/TLR2 in human THP-1 derived macrophages assessed as stimulation of TNF alpha release measured for 4 hrs by ELISA based assay relative to diprovocim-1
Type: cell-based
Set-up: concentration or dose not given beside the values
Study Conditions: filed as agonist
Readout: Activity (%)

Line Notation: CC(C)(C)OC(=O)NCCOCCCCCCCCCCCCNC(=O)[C@@H]1CN(C(=O)c2ccc(C(=O)N3C[C@@H](C(=O)N[C@H]4C[C@@H]4c4ccccc4)[C@H](C(=O)N[C@H]4C[C@@H]4c4ccccc4)C3)cc2)C[C@H]1C(=O)N[C@H]1C[C@@H]1c1ccccc1
Activity, %: 100
//
Line Notation: CC(C)(C)OC(=O)C(=O)NCC(=O)OCCCCCCCCCCCCNC(=O)[C@@H]1CN(C(=O)c2ccc(C(=O)N3C[C@@H](C(=O)N[C@H]4C[C@@H]4c4ccccc4)[C@H](C(=O)N[C@H]4C[C@@H]4c4ccccc4)C3)cc2)C[C@H]1C(=O)N[C@H]1C[C@@H]1c1ccccc1
Activity, %: 110
//
Line Notation: COC(=O)CCCCCCCCCCCNC(=O)[C@@H]1CN(C(=O)c2ccc(C(=O)N3C[C@@H](C(=O)N[C@H]4C[C@@H]4c4ccccc4)[C@H](C(=O)N[C@H]4C[C@@H]4c4ccccc4)C3)cc2)C[C@H]1C(=O)N[C@H]1C[C@@H]1c1ccccc1
Activity, %: 100
//
Line Notation: CNC(=O)CCCCCCCCCCCNC(=O)[C@@H]1CN(C(=O)c2ccc(C(=O)N3C[C@@H](C(=O)N[C@H]4C[C@@H]4c4ccccc4)[C@H](C(=O)N[C@H]4C[C@@H]4c4ccccc4)C3)cc2)C[C@H]1C(=O)N[C@H]1C[C@@H]1c1ccccc1
Activity, %: 120
